# TESTED_SYSTEM: HLA-B*44:03 (human)
# PROTOCOL: radioligand competition, purified MHC
READOUT: IC50

What does the record list as IC50 for FASEAARVV (modifications not checked) [… (SEQ ID NO: 17)] ?
> 70 µM

What does the record list as IC50 for FAVDAAKAY (modifications not checked) [… (SEQ ID NO: 28)] ?
> 70 µM

What does the record list as IC50 for QLTPTWRVY (modifications not checked) [… (SEQ ID NO: 38)] ?
> 70 µM

What does the record list as IC50 for IRQEEVQEL (modifications not checked) [… (SEQ ID NO: 31)] ?
> 70 µM
